system: soluble human BACE1 catalytic domain (Homo sapiens (Human), UniProt P56817)
Sequence (P56817 75-416): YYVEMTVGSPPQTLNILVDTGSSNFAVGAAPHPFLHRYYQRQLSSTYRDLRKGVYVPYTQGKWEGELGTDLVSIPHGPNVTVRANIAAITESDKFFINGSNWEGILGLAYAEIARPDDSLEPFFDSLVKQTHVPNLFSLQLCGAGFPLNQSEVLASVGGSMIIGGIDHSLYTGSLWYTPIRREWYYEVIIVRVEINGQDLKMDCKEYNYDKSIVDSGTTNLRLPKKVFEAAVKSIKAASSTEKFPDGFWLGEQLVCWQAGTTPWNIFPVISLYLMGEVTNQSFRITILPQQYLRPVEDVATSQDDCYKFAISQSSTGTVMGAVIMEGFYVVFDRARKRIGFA
Classify by Ki. Ranges: low (below 4 nM), intermediate (4 nM to below 70 nM), high (70 nM or more)

1. C[C@]1(c2ccc(F)cc2)C(=N)N[C@@]2(c3cc(NC(=O)c4ccc(F)cn4)ccc3F)COC[C@H]2S1(=O)=O ... low
2. CC1(C)C(=N)N[C@@]2(c3cc(NC(=O)c4ccc(C(F)(F)F)cn4)ccc3F)COC[C@H]2S1(=O)=O ... low
3. Cn1cc(C(=O)Nc2ccc(F)c([C@]34COC[C@H]3S(=O)(=O)C(C)(C)C(=N)N4)c2)c(C(F)(F)F)n1 ... high
4. COc1ccc(C(=O)Nc2ccc(F)c([C@]34COC[C@H]3S(=O)(=O)C(C)(C)C(=N)N4)c2)nc1 ... intermediate
5. Cc1nc(C(=O)Nc2ccc(F)c([C@]34COC[C@H]3S(=O)(=O)C(C)(C)C(=N)N4)c2)c(C)o1 ... intermediate
6. COCC(=O)Nc1ccc(F)c([C@]23COC[C@H]2S(=O)(=O)C(C)(C)C(=N)N3)c1 ... high
7. CC1(C)C(=N)N[C@@]2(c3cc(NC(=O)C(F)F)ccc3F)COC[C@H]2S1(=O)=O ... high
8. CC1(C)C(=N)N[C@@]2(c3cc(NC(=O)c4ccc(F)cn4)ccc3F)COC(CF)[C@H]2S1(=O)=O (single isomer, unassigned) [Example 4a] ... low
9. CC1(C)C(=N)N[C@@]2(c3cc(NC(=O)c4cnc(OCCF)cn4)ccc3F)COC[C@H]2S1(=O)=O ... intermediate
10. C[C@]1(C2CC2)C(=N)N[C@@]2(c3cc(NC(=O)c4ccc(F)cn4)ccc3F)COC[C@H]2S1(=O)=O [Example 13b] ... intermediate
11. CO[C@@H](C)C(=O)Nc1ccc(F)c([C@]23COC[C@H]2S(=O)(=O)C(C)(C)C(=N)N3)c1 ... high
12. C[C@@]1(c2ccc(F)cc2)C(=N)N[C@@]2(c3cc(NC(=O)c4ccc(F)cn4)ccc3F)COC[C@H]2S1(=O)=O ... high
13. CC1(C)C(=N)N[C@@]2(c3cc(NC(=O)c4ccc(F)cn4)ccc3F)COC[C@H]2S1(=O)=O ... low
14. C#CCOc1cnc(C(=O)Nc2ccc(F)c([C@]34COC[C@H]3S(=O)(=O)C(C)(C)C(=N)N4)c2)cn1 ... low

----------
system: purified human autoBACE-2 (Homo sapiens (Human), UniProt Q9Y5Z0)
Sequence (Q9Y5Z0 63-473 limits assumed): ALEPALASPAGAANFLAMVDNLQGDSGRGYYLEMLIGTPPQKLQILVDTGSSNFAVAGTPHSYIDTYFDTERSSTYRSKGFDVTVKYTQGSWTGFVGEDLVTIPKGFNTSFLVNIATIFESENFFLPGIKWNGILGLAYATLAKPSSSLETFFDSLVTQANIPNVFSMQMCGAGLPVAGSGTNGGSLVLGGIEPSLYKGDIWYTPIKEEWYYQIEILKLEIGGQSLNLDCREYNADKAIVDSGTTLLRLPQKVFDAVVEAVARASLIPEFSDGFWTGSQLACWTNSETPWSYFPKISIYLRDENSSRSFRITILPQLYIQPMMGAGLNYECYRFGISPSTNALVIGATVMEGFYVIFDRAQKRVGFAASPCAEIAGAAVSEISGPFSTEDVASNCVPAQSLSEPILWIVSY
protocol.notes: BACE-2 Assay (BACE-HTRF assay)
Assay type: biochemical
condition.description: BACE2 Ki (nM)
property.name: Ki (nM)

1) CC1(C)C(=N)N[C@@]2(c3cc(NC(=O)c4ccc(F)cn4)ccc3F)COC(CF)[C@H]2S1(=O)=O (single isomer, unassigned) [Example 4a] ... 1
2) CC1(C)C(=N)N[C@@]2(c3cc(NC(=O)c4ccc(F)cn4)ccc3F)COC(CF)[C@H]2S1(=O)=O (single isomer, unassigned) [Example 4b] ... 18
3) C[C@]1(c2ccc(F)cc2)C(=N)N[C@@]2(c3cc(NC(=O)c4ccc(F)cn4)ccc3F)COC[C@H]2S1(=O)=O [Example 8b] ... 1

----------
system: purified human autoBACE-2 (Homo sapiens (Human))
protocol.notes: BACE-2 Assay (BACE-HTRF assay)
Type: biochemical
condition.description: read-out: BACE2 Ki
pKi: −log10 of the molar value.
property.name: pKi

1. CC1(C)C(=N)N[C@@]2(c3cc(NC(=O)C(F)F)ccc3F)COC[C@H]2S1(=O)=O ... 7.48
2. CC1(C)C(=N)N[C@@]2(c3cc(NC(=O)c4ccn(C(F)F)n4)ccc3F)COC[C@H]2S1(=O)=O ... 9.00
3. Cc1cc(C(=O)Nc2ccc(F)c([C@]34COC[C@H]3S(=O)(=O)C(C)(C)C(=N)N4)c2)on1 ... 7.03

----------
system: purified human autoBACE-2 (Homo sapiens (Human), UniProt Q9Y5Z0)
protocol.notes: BACE-2 Assay (BACE-HTRF assay)
Assay type: biochemical
condition.description: read-out: BACE2 Ki
Measured Ki of individual entries
property.name: Ki (nM)

1) CC1(C)C(=N)N[C@@]2(c3cc(NC(=O)c4cn5ccsc5n4)ccc3F)COC[C@H]2S1(=O)=O [Example 1g] ... 3
2) CC1(C)C(=N)N[C@@]2(c3cc(NC(=O)c4ccc(OCF)cn4)ccc3F)COC[C@H]2S1(=O)=O [Example 1x] ... 2
3) COc1cnc(C(=O)Nc2ccc(F)c([C@]34COC[C@H]3S(=O)(=O)C(C)(C)C(=N)N4)c2)c(C)c1 [Example 1s] ... 1
4) COc1cnc(C(=O)Nc2ccc(F)c([C@]34COC[C@H]3S(=O)(=O)C(C)(C)C(=N)N4)c2)c(C)n1 [Example 1t] ... 6

----------
system: soluble human BACE1 catalytic domain (Homo sapiens (Human), UniProt P56817)
pKi: −log10 of the molar value.
Measured pKi of individual entries
property.name: pKi

1. C#CCOc1ccc(C(=O)Nc2ccc(F)c([C@]34COC[C@H]3S(=O)(=O)C(C)(C)C(=N)N4)c2)nc1 ... 9.00
2. COc1cnc(C(=O)Nc2ccc(F)c([C@]34COC[C@H]3S(=O)(=O)C(C)(C)C(=N)N4)c2)c(C)n1 ... 8.00
3. CC1(C)C(=N)N[C@@]2(c3cc(NC(=O)c4ccn(C(F)F)n4)ccc3F)COC[C@H]2S1(=O)=O ... 9.00
4. Cc1cc(C(=O)Nc2ccc(F)c([C@]34COC[C@H]3S(=O)(=O)C(C)(C)C(=N)N4)c2)no1 ... 6.70
5. CC1(C)C(=N)N[C@@]2(c3cc(NC(=O)c4ccc(OCF)cn4)ccc3F)COC[C@H]2S1(=O)=O ... 8.52
6. C[C@@]1(C2CC2)C(=N)N[C@@]2(c3cc(NC(=O)c4ccc(F)cn4)ccc3F)COC[C@H]2S1(=O)=O [Example 13a] ... 7.41
7. CC1(C)C(=N)N[C@@]2(c3cc(NC(=O)c4ccc(F)cn4)ccc3F)COC(CF)[C@H]2S1(=O)=O (single isomer, unassigned) [Example 4b] ... 7.38
8. CO[C@H](C)C(=O)Nc1ccc(F)c([C@]23COC[C@H]2S(=O)(=O)C(C)(C)C(=N)N3)c1 ... 6.82
9. COc1cnc(C(=O)Nc2ccc(F)c([C@]34COC[C@H]3S(=O)(=O)C(C)(C)C(=N)N4)c2)c(C)c1 ... 8.40
10. CC1(C)C(=N)N[C@@]2(c3cc(NC(=O)c4cnsn4)ccc3F)COC[C@H]2S1(=O)=O ... 8.10
11. CC1(C)C(=N)N[C@@]2(c3cc(NC(=O)c4ccc(C#N)cn4)ccc3F)COC[C@H]2S1(=O)=O ... 9.00
12. CC1(C)C(=N)N[C@@]2(c3cc(NC(=O)c4cnc(C(F)(F)F)cn4)ccc3F)COC[C@H]2S1(=O)=O ... 7.89
13. Cc1cc(C#N)cnc1C(=O)Nc1ccc(F)c([C@]23COC[C@H]2S(=O)(=O)C(C)(C)C(=N)N3)c1 ... 9.00
14. CC1(C)C(=N)N[C@@]2(c3cc(NC(=O)c4ccc(Cl)cn4)ccc3F)COC[C@H]2S1(=O)=O ... 8.60
15. CC1(C)C(=N)N[C@@]2(c3cc(NC(=O)c4cn5ccsc5n4)ccc3F)COC[C@H]2S1(=O)=O ... 7.60
16. Cc1cc(C(=O)Nc2ccc(F)c([C@]34COC[C@H]3S(=O)(=O)C(C)(C)C(=N)N4)c2)on1 ... 6.25
17. COc1cnc(C(=O)Nc2ccc(F)c([C@]34COC[C@H]3S(=O)(=O)C(C)(C)C(=N)N4)c2)cn1 ... 8.21
18. CC1(C)C(=N)N[C@@]2(c3cc(NC(=O)c4ncc(Cl)cc4F)ccc3F)COC[C@H]2S1(=O)=O ... 8.52
19. Cn1ccc(C(=O)Nc2ccc(F)c([C@]34COC[C@H]3S(=O)(=O)C(C)(C)C(=N)N4)c2)n1 ... 7.89

----------
system: purified human autoBACE-2 (Homo sapiens (Human), UniProt Q9Y5Z0)
protocol.notes: BACE-2 Assay (BACE-HTRF assay)
Assay type: biochemical
condition.description: read-out: BACE2 Ki
pKi: −log10 of the molar value.
property.name: pKi

1) Cc1nc(C(=O)Nc2ccc(F)c([C@]34COC[C@H]3S(=O)(=O)C(C)(C)C(=N)N4)c2)c(C)o1 ... 9.00
2) Cc1cc(C(=O)Nc2ccc(F)c([C@]34COC[C@H]3S(=O)(=O)C(C)(C)C(=N)N4)c2)no1 ... 7.62
3) COc1ccc(C(=O)Nc2ccc(F)c([C@]34COC[C@H]3S(=O)(=O)C(C)(C)C(=N)N4)c2)nc1 ... 8.52
4) Cn1ccc(C(=O)Nc2ccc(F)c([C@]34COC[C@H]3S(=O)(=O)C(C)(C)C(=N)N4)c2)n1 ... 8.70
5) COCC(=O)Nc1ccc(F)c([C@]23COC[C@H]2S(=O)(=O)C(C)(C)C(=N)N3)c1 ... 8.30
6) CO[C@H](C)C(=O)Nc1ccc(F)c([C@]23COC[C@H]2S(=O)(=O)C(C)(C)C(=N)N3)c1 ... 7.80
7) Cc1cc(C#N)cnc1C(=O)Nc1ccc(F)c([C@]23COC[C@H]2S(=O)(=O)C(C)(C)C(=N)N3)c1 ... 9.00
8) CC1(C)C(=N)N[C@@]2(c3cc(NC(=O)c4cnc(C(F)(F)F)cn4)ccc3F)COC[C@H]2S1(=O)=O ... 7.46
9) Cn1cc(C(=O)Nc2ccc(F)c([C@]34COC[C@H]3S(=O)(=O)C(C)(C)C(=N)N4)c2)c(C(F)(F)F)n1 ... 6.51
10) CC1(C)C(=N)N[C@@]2(c3cc(NC(=O)c4cnsn4)ccc3F)COC[C@H]2S1(=O)=O ... 9.00
11) C#CCOc1cnc(C(=O)Nc2ccc(F)c([C@]34COC[C@H]3S(=O)(=O)C(C)(C)C(=N)N4)c2)cn1 ... 8.70
12) CC1(C)C(=N)N[C@@]2(c3cc(NC(=O)c4ncc(Cl)cc4F)ccc3F)COC[C@H]2S1(=O)=O ... 9.00
13) CC1(C)C(=N)N[C@@]2(c3cc(NC(=O)c4ccc(C#N)cn4)ccc3F)COC[C@H]2S1(=O)=O ... 9.00
14) C#CCOc1ccc(C(=O)Nc2ccc(F)c([C@]34COC[C@H]3S(=O)(=O)C(C)(C)C(=N)N4)c2)nc1 ... 8.15
15) CC1(C)C(=N)N[C@@]2(c3cc(NC(=O)c4ccc(C(F)(F)F)cn4)ccc3F)COC[C@H]2S1(=O)=O ... 8.10
